// provenance: the METLIN SMRT retention time set (Domingo-Almenara et al. 2019)

experiment: gradient 5% acetonitrile 3 min, to 50% in 2 min, to 85% in 15 min, held 3 min, 100 µL/min; settings: column: Zorbax Extend-C18 2.1 x 50 mm; eluents: water / acetonitrile, 0.1% formic acid
Classification field: met = RP-LC retention time at or over 900 s; not met = RP-LC retention time under 900 s.

Molecule: COc1ccc(C(=O)N2CCCC2c2nc(-c3ccc(OC)cc3)no2)cc1 (stereo not given)
Classification: met
--
Molecule: CCC(=O)NCCc1csc(C2CCCN(C(=O)C(C)(C)C)C2)n1 (stereo not given)
Classification: not met
--
Molecule: CCOc1ccc(S(=O)(=O)N2CCC(C(=O)N3CCc4ccccc4C3)CC2)cc1
Classification: met
--
Molecule: Cc1ccc(-c2cn3ccccc3n2)cc1NS(=O)(=O)c1ccc(Cl)cc1
Classification: not met
--
Molecule: Cc1ccccc1CSc1nnc(-c2ccccc2Cl)o1
Classification: met
--
Molecule: CC(=O)N1CCc2cc(N3CC(C(=O)NCc4cccc(C)c4)CC3=O)ccc21 (stereo not given)
Classification: not met
--
Molecule: CCOc1cccc(CNS(=O)(=O)c2cc3c(s2)CCN(C(=O)C2CCC2)C3)c1
Classification: met
--
Molecule: Cc1cccc(N(C)C(=O)C2CCCN2S(=O)(=O)c2cc3c(cc2C)NC(=O)CO3)c1 (stereo not given)
Classification: not met
--
Molecule: Cc1ccc(C)c(NC(=O)Cc2csc(C)n2)c1
Classification: not met

* * *

experiment: gradient 5% acetonitrile 3 min, to 50% in 2 min, to 85% in 15 min, held 3 min, 100 µL/min; settings: column: Zorbax Extend-C18 2.1 x 50 mm; eluents: water / acetonitrile, 0.1% formic acid
Below, each of the compounds is paired with its reported RP-LC retention time value.

Structure: Cc1ccc(NC(=O)CN2C(=O)CCCc3cc(S(=O)(=O)N4CCC(C)CC4)ccc32)cc1
RP-LC retention time (s): 976
//
Structure: O=C(C(=O)N1CCN(c2ccccc2)CC1)c1c[nH]c2ccccc12
RP-LC retention time (s): 845
//
Structure: COc1cc(Cl)ccc1C(=O)N1CCN(c2cc(-c3cccs3)[nH]n2)CC1
RP-LC retention time (s): 795
//
Structure: O=c1n(Cc2ccccc2)nc2ccc(S(=O)(=O)N3CCc4ccccc4C3)cn12
RP-LC retention time (s): 644
//
Structure: Cc1ccc(S(=O)(=O)Nc2ccncc2)c(C)c1N(C)S(=O)(=O)c1ccc(F)cc1
RP-LC retention time (s): 625
//
Structure: CCN(CC)S(=O)(=O)c1c(C)[nH]c(=O)[nH]c1=O
RP-LC retention time (s): 578
//
Structure: COC(=O)c1ccc2c(=O)n(-c3cc(C)cc(C)c3)c(N3CCSC3)nc2c1
RP-LC retention time (s): 1180
//
Structure: O=C(NCc1nnnn1-c1ccc(Cl)cc1)c1ccc(S(=O)(=O)N2CCCC2)cc1
RP-LC retention time (s): 773
//
Structure: CCOC(=O)c1nc(N(C)c2cc(C)ccc2C)c2ccccc2n1
RP-LC retention time (s): 1010

* * *

assay: gradient 5% acetonitrile 3 min, to 50% in 2 min, to 85% in 15 min, held 3 min, 100 µL/min; details: column: Zorbax Extend-C18 2.1 x 50 mm; eluents: water / acetonitrile, 0.1% formic acid
Below, each of the compounds is paired with its reported RP-LC retention time value.

Compound: Cc1ccc(S(=O)(=O)CCc2noc(C(=O)NCCCN3CCC(C)CC3)n2)cc1
RP-LC retention time / s: 637

Compound: Cc1ccc(S(=O)(=O)N2CCCC(C(=O)NCc3c(C)nc4sc(C)nn34)C2)cc1 (stereo not given)
RP-LC retention time / s: 687

Compound: CCn1nc(C)c2ccnc(N3CCC(C(=O)N4CCN(c5ccccc5Cl)CC4)CC3)c21
RP-LC retention time / s: 812

Compound: CC(Cc1ccco1)NC(=O)CCCn1c2ccccc2c2cnn(C)c(=O)c21 (stereo not given)
RP-LC retention time / s: 775

Compound: CCCOc1ccc2nc(NC(=O)OC)[nH]c2c1
RP-LC retention time / s: 652

Compound: Cc1noc(C2(NC(=O)c3sccc3C)CCCCC2)n1
RP-LC retention time / s: 882

Compound: CN(C)C(CNC(=O)Nc1cccs1)c1cccs1 (stereo not given)
RP-LC retention time / s: 556

Compound: CCN(CC)c1ncnc2c(-c3ccccc3)cn(CC(=O)NCC3CCCO3)c12 (stereo not given)
RP-LC retention time / s: 666

Compound: CSc1ccccc1NC(=O)C(=O)NCC1CCN(Cc2cc(C)oc2C)CC1
RP-LC retention time / s: 615

Compound: O=C(NCCCN1CCCC1=O)c1ccc(-c2ccc(N3CCSCC3)nc2)cc1
RP-LC retention time / s: 619

* * *

test: gradient 5% acetonitrile 3 min, to 50% in 2 min, to 85% in 15 min, held 3 min, 100 µL/min; conditions: column: Zorbax Extend-C18 2.1 x 50 mm; eluents: water / acetonitrile, 0.1% formic acid

Compound: CCCc1nc(-c2c(C)cc(C)nc2NC(=O)c2ccccc2C(F)(F)F)no1
RP-LC retention time / s: 951

Compound: CCc1nc(-c2csc(S(=O)(=O)N3CCCC(C(=O)Nc4ccc5c(c4)OCO5)C3)c2)no1 (centres undefined)
RP-LC retention time / s: 984

Compound: Cc1cc(C)c(S(=O)(=O)N2CCCC(C(=O)NC3CC3)C2)c(C)c1 (centres undefined)
RP-LC retention time / s: 842

Compound: CCOc1ccccc1NC(=O)N1CCC(n2cnc3cc(Cl)ccc3c2=O)CC1
RP-LC retention time / s: 935

Compound: COC(=O)c1ccc(C(=O)Nc2nc3c(s2)CCc2ccccc2-3)cc1
RP-LC retention time / s: 1120

Compound: CCOC(=O)N1CCN(c2ncnc3c2cnn3-c2cc(Cl)ccc2C)CC1
RP-LC retention time / s: 863

Compound: Cc1ccc(NC(=O)N2CCC(n3cnnc3C3CC3)C2)cc1 (centres undefined)
RP-LC retention time / s: 635

Compound: O=C(Nc1ccccc1F)N1CC2CN(S(=O)(=O)c3ccc(F)cc3)CC(C1)O2
RP-LC retention time / s: 758

Compound: CCCn1cc(C2=CCN(C(=O)Nc3ccc4c(c3)OCCO4)CC2)c2cccnc21
RP-LC retention time / s: 846

* * *

assay: gradient 5% acetonitrile 3 min, to 50% in 2 min, to 85% in 15 min, held 3 min, 100 µL/min; conditions: column: Zorbax Extend-C18 2.1 x 50 mm; eluents: water / acetonitrile, 0.1% formic acid
Experimental Endpoint: RP-LC retention time (s)

Molecule: CNC(=O)c1ccc(-c2nc3cc(NS(=O)(=O)c4cnc[nH]4)ccc3n2C)cc1
Experimental Endpoint: RP-LC retention time
Quantitative Result: 548
//
Molecule: Fc1cc(F)cc(Cc2nc3nccc(-c4ccccc4)n3n2)c1
Experimental Endpoint: RP-LC retention time
Quantitative Result: 926
//
Molecule: Cc1ccc(N2C(=O)N(Cc3ccccc3F)S(=O)(=O)c3cccnc32)cc1
Experimental Endpoint: RP-LC retention time
Quantitative Result: 1050
//
Molecule: CCn1cnc2ccc(-c3noc(-c4ccccc4)n3)cc21
Experimental Endpoint: RP-LC retention time
Quantitative Result: 758
//
Molecule: O=C(NCCc1csc(-c2cccs2)n1)C1CCN(C(=O)COc2ccccc2)CC1
Experimental Endpoint: RP-LC retention time
Quantitative Result: 783
//
Molecule: O=C(Cc1ccsc1)NCCC1CCN(C(=O)Nc2ccc(F)cc2F)CC1
Experimental Endpoint: RP-LC retention time
Quantitative Result: 766
//
Molecule: Cc1cc(NC(=O)Cn2c(=O)oc3ccccc32)n(-c2nc3c(F)cccc3s2)n1
Experimental Endpoint: RP-LC retention time
Quantitative Result: 1040
//
Molecule: COc1cccc(-c2ccc(=O)n(CCCC(=O)Nc3cccc4nsnc34)n2)c1
Experimental Endpoint: RP-LC retention time
Quantitative Result: 764
//
Molecule: COc1ccc(NC(=O)N2c3ccccc3CC2c2nc(C(C)C)no2)c(OC)c1 (centres undefined)
Experimental Endpoint: RP-LC retention time
Quantitative Result: 1080

* * *

experiment: gradient 5% acetonitrile 3 min, to 50% in 2 min, to 85% in 15 min, held 3 min, 100 µL/min; settings: column: Zorbax Extend-C18 2.1 x 50 mm; eluents: water / acetonitrile, 0.1% formic acid
Experimental Endpoint: RP-LC retention time (s)

Compound: Cc1ccc2cc(CCC(=O)NCc3nc4ccccc4n3C)c(=O)[nH]c2c1
Quantitative Result: 617
--
Compound: Cc1noc(C2CN(C(=O)Nc3ccc(C)c(F)c3)CC23CCOCC3)n1 (centres undefined)
Quantitative Result: 776
--
Compound: CN(C)c1ccc(-c2nc3ncccn3c2Nc2cccc(C(F)(F)F)c2)cc1
Quantitative Result: 765
--
Compound: COc1ccc(-c2ccc(=O)n(Cc3nc(-c4ccc(Cl)cc4)no3)n2)cc1
Quantitative Result: 1070
--
Compound: CCOc1ccc(-c2noc(Cc3nnc(-c4cccc(F)c4)o3)n2)cc1
Quantitative Result: 1090
--
Compound: CCOC(=O)C1CCCN(C(=O)Cc2cc(-c3ccc(F)cc3)on2)C1 (centres undefined)
Quantitative Result: 820
--
Compound: O=C(NCc1ccc(S(=O)(=O)N2CCCC2)s1)c1cccc(-c2nnc(-c3ccccc3)o2)c1
Quantitative Result: 948
--
Compound: Cn1cc(-c2ccncc2)cc1C(=O)N1CCN(c2ccccc2Cl)CC1
Quantitative Result: 671
--
Compound: CC1CCN(CC2CCN(S(=O)(=O)c3ccc(F)c(Cl)c3)CC2)CC1
Quantitative Result: 688
--
Compound: Cc1ccc(C)c(Cn2nc(-c3nc(C)no3)ccc2=O)c1
Quantitative Result: 916
--
Compound: CCc1nc(-c2csc(S(=O)(=O)N3CCCC(C(=O)N4CCOCC4)C3)c2)no1 (centres undefined)
Quantitative Result: 796
--
Compound: COc1ccc(-c2cn3ccn(-c4cc(C)cc(C)c4)c(=O)c3n2)cc1
Quantitative Result: 874
--
Compound: CS(=O)(=O)N1CCCc2cc(C(=O)NCCN3CCOCC3)ccc21
Quantitative Result: 573
--
Compound: COc1ccc(/C=C/c2cc(O)cc(OC3OC(CO)C(O)C(O)C3O)c2)cc1O (centres undefined)
Quantitative Result: 612
--
Compound: COc1ccc(-c2ncccc2CNS(=O)(=O)c2ccc(C(F)(F)F)cc2)cc1
Quantitative Result: 764
--
Compound: Cc1[nH]c(C)c(S(=O)(=O)N2CCC(C(=O)NC3CC3)CC2)c1C(=O)N1CCCCC1
Quantitative Result: 630
--
Compound: CCC1(O)CCOC2(CCN(C(=O)C3CCCCCC3)CC2)C1 (centres undefined)
Quantitative Result: 823
--
Compound: Cc1ccc(-c2cc(C(=O)N3CCN(c4ccccn4)CC3)nn2C2CCS(=O)(=O)C2)cc1C (centres undefined)
Quantitative Result: 674
--
Compound: Cc1nnc(-c2cccc(Cl)c2)nc1N1CCC(C)CC1
Quantitative Result: 986
